Below: a set of entries, each annotated with reported Max MFI.
- Subject of test: T1, human tissue factor (TF), membrane-bound on cells (human, UniProt P13726 33-295)
- T1 construct: whole, on cells; also called cellular TF
- Measurement notes: FACS, MDA-MB-231 cells, 30 µg/mL
Please respond with just the number, no unit label.

Inquiry: Give Max MFI for the following binder: anti-TF HuMab 025 (antibody, V domains shown, Human monoclonal antibody from HuMab mice) VH: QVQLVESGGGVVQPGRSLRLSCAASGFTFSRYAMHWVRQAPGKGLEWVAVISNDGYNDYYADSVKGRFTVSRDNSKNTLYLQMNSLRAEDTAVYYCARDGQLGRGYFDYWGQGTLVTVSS VL: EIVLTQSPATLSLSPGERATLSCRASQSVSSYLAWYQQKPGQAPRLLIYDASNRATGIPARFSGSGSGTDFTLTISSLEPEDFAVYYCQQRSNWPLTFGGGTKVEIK
Reply text: 2250

Inquiry: Give Max MFI for the following binder: anti-TF HuMab 098 (antibody, V domains shown, Human monoclonal antibody from HuMab mice; also called HuMab-TF-098; HuMab-TF-98) VH: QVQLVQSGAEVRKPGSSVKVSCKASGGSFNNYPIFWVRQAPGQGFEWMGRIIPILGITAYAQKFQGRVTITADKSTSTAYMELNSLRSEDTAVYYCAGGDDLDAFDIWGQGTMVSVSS VL: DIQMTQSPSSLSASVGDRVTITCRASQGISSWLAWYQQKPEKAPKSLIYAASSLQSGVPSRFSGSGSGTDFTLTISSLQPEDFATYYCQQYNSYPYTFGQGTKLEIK
Reply text: 1960
